ASSAY SYSTEM: T1, SARS-CoV-2 S2 (aa686-1208) (Wuhan) (SARS-CoV-2 Wuhan, UniProt P0DTC2 686-1208)
T1 construct: NRC; FLAG, 6xHis tags
ASSAY PROCEDURE: SPR, antigen on chip
satisfied if koff is below 0.0003 s⁻¹. not satisfied if not; exact matches included in not satisfied.

- BINDER: "NRCoV2-MRed20 VHH (VHH) VHH: EVQLVESGGGSVQAGGSLRLSCAASGLSFSSYDMGWFRQAPGKEREFVAAIRESGSGTYYADSVKGRFTISRDNAKNTVYLQVSSLKPEDTAVYTCAAKPPFYGSGTYSTPRAYLYWGQGTQVTVSS"
  ANSWER LABEL: "satisfied"
- BINDER: "NRCoV2-MRed19 VHH (VHH) VHH: EVQLVESGGGLVQPGGSLRLSCAASTIIFKGQTMGWFRQAPGNERELVATMTTSGSANYADSVKGRFTISRDNEKTVTLQMNSLKPEDTALYYCYMHSVYYGIDYWGKGTQVTVSS"
  ANSWER LABEL: "not satisfied"
- BINDER: "NRCoV2-MRed18 VHH (VHH) VHH: EVQLVESGGGLVQPGGSLRLSCAASTTVFGRNAMGWYRQAPGKERELVATVSDGGTPNYADSVKGRFTISRDNAKNTIYLQMNSLEPEDTAVYYCNYYNYYYGRNFWGQGTQVTVSS"
  ANSWER LABEL: "not satisfied"
- BINDER: "NRCoV2-MRed22 VHH (VHH) VHH: EVQLVESGGGLVQPGGSLRLSCAASGSVFASNAMGWYRQAPGKQRELVATISSRGSTNYADSVKGRFTISRDNAKNTVYLQMNSLGPEDTAVYYCNAREFTGFDYWGQGTQVTVSS"
  ANSWER LABEL: "satisfied"
- BINDER: "NRCoV2-MRed11 VHH (VHH) VHH: EVQLVESGGGLVQAGGSLRLSCAASGFTFSSYAMSWHRQAPGKGLEWVSAINSGGGSTSYADSVKGRFAISRDNAKNTLYLQMNSLKPEDTAVYYCATTISDGSSWSTKSYRGQGTQVTVSS"
  ANSWER LABEL: "satisfied"
- BINDER: "NRCoV2-MRed25 VHH (VHH) VHH: EVQLVESGGGLVQAGGSLRLSCAASGHTFSRYGMGWFRQAPGKEREFVAAISWRGDSTYYRDSVNGRFTISRDNAKNTVYLGMNSLKPEDTAVYYCAAEMWGTATIVASRYTYWGQGTQVTVSS"
  ANSWER LABEL: "satisfied"
